Biological target: human RORγt LBD (Homo sapiens, UniProt P51449)
Construct: expressed in transfected cells; host or cells: HEK293T
Sequence (P51449 258-518): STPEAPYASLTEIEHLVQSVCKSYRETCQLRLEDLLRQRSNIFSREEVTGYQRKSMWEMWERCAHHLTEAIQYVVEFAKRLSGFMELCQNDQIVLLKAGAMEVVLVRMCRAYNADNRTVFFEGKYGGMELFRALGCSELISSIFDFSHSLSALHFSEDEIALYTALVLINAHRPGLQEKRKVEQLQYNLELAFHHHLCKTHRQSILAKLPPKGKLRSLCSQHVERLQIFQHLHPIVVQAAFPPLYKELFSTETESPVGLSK
Test: RORγt (LBD) reporter assay in HEK293T cells
Format: cell-based
Conditions: HEK-293T, read-out: RORγt (LBD) Reporter Assay, % inhibition @ 6 μM, 6 μM compound
Threshold check on inhibition at 6 µM: at or above 80% gives Condition met, strictly below gives Condition not met.

- Compound: "COc1nc2ccc(C(O)(c3ccc(Cl)cc3)c3cncn3C)cc2c(Cl)c1Cc1cccc(C#N)c1 (stereo not shown)"
  Label: "Condition met"
- Compound: "CCN(CC)c1nc2ccc(C(O)(c3ccc(Cl)cc3)c3cncn3C)cc2c(C#N)c1Cc1ccc(-n2cccn2)cc1 (single isomer, unassigned) [Example 154b]"
  Label: "Condition met"
- Compound: "COc1nc2ccc(C(O)(c3ccc(Cl)cc3)c3cncn3C)cc2c(Cl)c1Cc1ccc(C(F)(F)F)nc1 (stereo not shown) [Example 39a]"
  Label: "Condition met"
- Compound: "COc1nc2ccc(C(O)(c3oc(C)nc3C)c3cnnn3C)cc2c(Cl)c1Cc1ccc(C(F)(F)F)cc1 (single isomer, unassigned) [Example 156b]"
  Label: "Condition met"
- Compound: "COc1nc2ccc(C(O)(c3ccc(C)nc3C)c3cnnn3C)cc2c(C#N)c1Cc1ccc(F)cc1 (stereo not shown) [Example 49a]"
  Label: "Condition met"
- Compound: "CCN(CC)c1nc2ccc(C(O)(c3ccc(Cl)cc3)c3cncn3C)cc2c(C#N)c1Cc1ccc(-n2cccn2)cc1 (single isomer, unassigned) [Example 154c]"
  Label: "Condition not met"
- Compound: "COc1nc2ccc(C(O)(c3ccc(C(F)(F)F)cc3)c3cccnc3)cc2c(Cl)c1Cc1ccc(-n2cccn2)cc1 (stereo not shown) [Example 162a]"
  Label: "Condition met"
- Compound: "COc1nc2ccc(C(O)(c3ccc(C)nc3C)c3cnnn3C)cc2c(Cl)c1Cc1ccc(F)cc1 (stereo not shown) [Example 48a]"
  Label: "Condition not met"
- Compound: "COc1nc2ccc(C(O)(c3ccc(C)nc3C)c3cnnn3C)cc2c(Cl)c1Cc1ccc(F)cc1 (single isomer, unassigned) [Example 48b]"
  Label: "Condition not met"
- Compound: "COc1nc2ccc(C(O)(c3ccc(Cl)cc3)c3cncn3C)cc2c(Cl)c1Cc1ccc(C(F)(F)F)nc1 (single isomer, unassigned) [Example 39b]"
  Label: "Condition met"
- Compound: "COc1nc2ccc(C(O)(c3ccccn3)c3cncn3C)cc2c(Cl)c1Cc1ccc(C(F)(F)F)cc1 (stereo not shown)"
  Label: "Condition met"
- Compound: "COc1nc2ccc(C(O)(c3cnnn3C)c3cnc(C)n3C)cc2c(Cl)c1Cc1ccc(F)cc1 (single isomer, unassigned) [Example 65b]"
  Label: "Condition not met"

====

System: IL-17 production by CD4 T cells
Assay: Human Th17 assay
Type: cell-based
Conditions: Homo sapiens, CD4+ T, IL-17 production by human CD4 T cells
Observable: log10 of IC50 (log10 of the value in nM)

- Compound: "CCc1nc2ccc(C(O)(c3cnnn3C)c3cnc(C)n3C)cc2c(Cl)c1Cc1ccc(C(F)(F)F)cc1 (single isomer, unassigned) [Example 25b]"
  log10 of IC50: 0.32
- Compound: "COc1nc2ccc(C(O)(c3ccc(Cl)cc3)c3cncn3C)cc2c(Cl)c1Cc1ccc(C(F)(F)F)nc1 (single isomer, unassigned) [Example 39c]"
  log10 of IC50: 1.57
- Compound: "COc1nc2ccc(C(O)(c3ccc(C(F)(F)F)cc3)c3cccnc3)cc2c(Cl)c1Cc1ccc(-n2cccn2)cc1 (single isomer, unassigned) [Example 162c]"
  log10 of IC50: 1.69
- Compound: "COc1nc2ccc(C(O)(c3ccc(C(F)(F)F)cc3)c3cccnc3)cc2c(Cl)c1Cc1ccc(-n2cccn2)cc1 (stereo not drawn) [Example 162a]"
  log10 of IC50: 2.40
- Compound: "COc1nc2ccc(C(O)(c3ccc(Cl)cc3)c3cncn3C)cc2c(Cl)c1Cc1ccc(C(F)(F)F)nc1 (stereo not drawn) [Example 39a]"
  log10 of IC50: 2.04
- Compound: "COc1nc2ccc(C(O)(c3ccc(C)nc3C)c3cnnn3C)cc2c(Cl)c1Cc1ccc(F)cc1 (single isomer, unassigned) [Example 48c]"
  log10 of IC50: 0.36
